Ref: paper PMC5850324

Entries and their ratio to parent
B1: GLuc2-NS2 (hepatitis C virus nonstructural 2 protein, wild type) [hepatitis C virus (J6/JFH genome)] / GLuc1-tagged μ subunit of the AP-1A complex [not stated] (parent)
chain 1: YDASVHGQIGAALLVLITLFTLTPGYKTLLSRFLWWLCYLLTLAEAMVQEWAPPMQVRGGRDGIIWAVAIFCPGVVFDITKWLLAVLGPAYLLKGALTRVPYFVRAHALLRMCTMVRHLAGGRYVQMVLLALGRWTGTYIYDHLTPMSDWAANGLRDLAVAVEPIIFSPMEKKVIVWGAETAACGDILHGLPVSARLGREVLLGPADGYTSKGWSLL
chain 2: MSASAVYVLDLKGKVLICRNYRGDVDMSEVEHFMPILMEKEEEGMLSPILAHGGVRFMWIKHNNLYLVATSKKNACVSLVFSFLYKVVQVFSEYFKELEEESIRDNFVIIYELLDELMDFGYPQTTDSKILQEYITQEGHKLETGAPRPPATVTNAVSWRSEGIKYRKNEVFLDVIESVNLLVSANGNVLRSEIVGSIKMRVFLSGMPELRLGLNDKVLFDNTGRGKSKSVELEDVKFHQCVRLSRFENDRTISFIPPDGEFELMSYRLNTHVKPLIWIESVIEKHSHSRIEYMIKAKSQFKRRSTANNVEIHIPVPNDADSPKFKTTVGSVKWVPENSEIVWSIKSFPGGKEYLMRAHFGLPSVEAEDKEGKPPISVKFEIPYFTTSGIQVRYLKIIEKSGYQALPWVRYITQNGDYQLRTQ

- Variants of: B1
- Protocol notes: PCA (protein-fragment complementation assay)
- Condition notes: with GLuc1-tagged μ subunit of the AP-1A complex; parent: 1; read off a plot

chain 1 L202A L203A L216A L217A = 0.33
chain 1 L203A = 0.67
chain 1 L202A = 0.71
chain 1 L216A = 0.56
chain 1 D207A = 0.74

### Prompt Value lookup for ratio to parent; key = chain 1 L202A L217A
### Response 0.38

### Prompt Value lookup for ratio to parent; key = chain 1 E200A
### Response 1

### Prompt Value lookup for ratio to parent; key = chain 1 L217A
### Response 0.68
